test system: RARb homodimer (NR concentration 270 nM); experiment: PBM binding z-score (relative to random genomic background probes); higher = stronger binding; sequences stand for … in GC…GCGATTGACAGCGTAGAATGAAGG
Label 1 for high-side PBM binding z-score (at or above 3) and 0 for low-side PBM binding z-score (below it).

Observe how each entry below is paired with its result.
Sequence Content: TCTGACAGGTGAAGGTAACTCAGGTACGCAGTCG
Group: 0
--
Sequence Content: TCTATTAGTTGATTAAGGCAACCGAAACAGCGGA
Group: 0
--
Sequence Content: CAGCCGAGGTCAGGGCCAGTATAGGAGGAACGTT
Group: 1
--
Sequence Content: CCTAGCAGGCCAATCTGGGACACTCAAGGCTTGA
Group: 0
--
Sequence Content: TAGCCTAGGTCATTCACGGGCCAGTATAGAAAGC
Group: 0
--
Sequence Content: CGAACTAGGTCAAGGTCAAAGTCGGTTTGTGCCA
Group: 1
--
Sequence Content: AGAACGAGGGCAATGACTTGATAGCACGGGTGGC
Group: 0
--
Sequence Content: GGAACGAGGGCAATGTTGATAGCATCTGTCGACG
Group: 0
--
Sequence Content: AGAATGAGGTTACCAAAGATCAGGGACACGCTTG
Group: 0
--
Sequence Content: GCTGCTAGGTCAACTGATGGTCAGCCAAAGCTCG
Group: 1

Q) In plain terms: is recorded PBM binding z-score at least 3 for TCTAGCATGCCAGAGGGTCACTCAAGAGGTACGG ?
A) 0

Q) In plain terms: is recorded PBM binding z-score at least 3 for AGAATGAGGTTACCAAAGATCAGGGAGACGCTTG ?
A) 0

Q) In plain terms: is recorded PBM binding z-score at least 3 for CCGACTGTGGCAAAGGTTACCATACTCAGTACGA ?
A) 0

Q) In plain terms: is recorded PBM binding z-score at least 3 for CCAGACAGGTGAAAGGTGACTCAGTCTGGTACGC ?
A) 0

Q) In plain terms: is recorded PBM binding z-score at least 3 for TCTGGTAGATCAGCAGGTTAAGAAAGCTGGCCAA ?
A) 0

Q) In plain terms: is recorded PBM binding z-score at least 3 for TCGAGTAGGTTAGGGGCATTCCGAATGGCGTCGA ?
A) 0
